Test system: NOMO-1
Details: 72 h
MEASURED_ATTRIBUTE: IC50 (cell viability)

> print(dat)
                                    molecule  data.value
 1  CCCCCCCCCCCCC/C=C/[C@@H](O)[C@H](CO)N(C)C     > 10 µM
 2  CN1CC(=O)N2[C@H](c3ccc4c(c3)OCO4)c3[nH]c4ccccc4c3C[C@@H]2C1=O     > 10 µM
 3      N=C(N)c1ccc(N=NNc2ccc(C(=N)N)cc2)cc1     > 10 µM
 4  N#Cc1ccc(C2CCCc3cncn32)cc1 (configuration not stated)     > 10 µM
 5  NS(=O)(=O)c1ccc(S(=O)(=O)Nc2cccc3c(Cl)c[nH]c23)cc1     1.09 µM
 6   CNC(=C[N+](=O)[O-])NCCSCc1ccc(CN(C)C)o1     > 10 µM
 7                  Clc1cc(Cl)c(OCC#CI)cc1Cl     3.09 µM
 8            Fc1ccc(CNc2ncnc3ccc(F)cc23)cc1     > 10 µM
 9          Cn1cc(C[C@@H](N)C(=O)O)c2ccccc21     > 10 µM
10                   CC(=O)N[C@@H](CS)C(=O)O     > 10 µM
11  c1ccc2nc(-c3nnc4sc(-c5cnccn5)nn34)ccc2c1     > 10 µM
12  CC(C)(CS(=O)(=O)[O-])NC(=O)CC[N+](C)(C)CCO     > 10 µM

---

Test system: HL-60
Assay: cell viability (% survival relative to DMSO control); higher = less cytotoxic
Settings: 0.01 µM; 72 h; co-treatment: pictilisib 100 nM
MEASURED_ATTRIBUTE: cell viability

> print(dat)
                                smiles.text  data.value
1        O=C(C(=O)c1ccc(Br)cc1)c1ccc(Br)cc1        105%
2                   CC(=O)N[C@@H](CS)C(=O)O        101%
3  COc1ccc2c(c1)c(CC(=O)O)c(C)n2C(=O)c1ccc(Cl)cc1       87.2%
4                  Clc1cc(Cl)c(OCC#CI)cc1Cl       96.3%

---

Tested on: myeloid leukemia patient primary cells Pat.5
Assay: area under dose-response curve (viability, 1 nM-10 uM) (fraction (0-1)); higher = more sensitive
Details: 72 h
Threshold rule: area under dose-response curve greater than or equal to 0.3 is MET; below that, NOT MET.

> print(dat)
                                smiles.text  category
1  CCn1c(=O)/c(=C2\Sc3ccccc3N2C)s/c1=C\c1cccc[n+]1CC.[Cl-]   NOT MET
2  O=C(CCl)N(CCCNC(=O)C(F)(F)F)c1ccc([N+](=O)[O-])cc1       MET
3  O=C(c1c2ccccc2cc2ccccc12)N1CCC(N2CCC[C@@H](C(=O)N3CCOCC3)C2)CC1       MET
4  Nc1nc(O)c2c(CCc3ccc(C(=O)N[C@@H](CCC(=O)O)C(=O)O)cc3)c[nH]c2n1   NOT MET
5  CN(C)CCNC(=O)c1cccn2c(=O)c3cc4ccccc4cc3nc12       MET
6  O=c1[nH]c(=O)n([C@H]2C[C@H](O)[C@@H](CO)O2)cc1I   NOT MET
7  NS(=O)(=O)c1ccc(S(=O)(=O)Nc2cccc3c(Cl)c[nH]c23)cc1       MET
